- System: SET-2 cells (harboring endogenous JAK2 V618F point mutation)
- assay-protocol: SET-2 cell proliferation assay (CellTiter-Glo)
- Assay type: cell-based
- details: Homo sapiens, SET-2 essential thrombocythemia cells, 72 hours incubation, read-out: SET2 cell proli. IC50
quantity: IC50 (µM)
Express it in µM; write the number only.

Ask: Annotate the molecule C[C@H]1CNC(=O)c2cnn3ccc(nc23)N[C@H](C)c2cc(F)ccc2O1 [Compound I] with its measured IC50.
Reply: 0.242
